study-system: Disintegrin and metalloproteinase domain-containing protein 17 (Homo sapiens, UniProt P78536)
Sequence (P78536 whole entry, the tested form may be a part): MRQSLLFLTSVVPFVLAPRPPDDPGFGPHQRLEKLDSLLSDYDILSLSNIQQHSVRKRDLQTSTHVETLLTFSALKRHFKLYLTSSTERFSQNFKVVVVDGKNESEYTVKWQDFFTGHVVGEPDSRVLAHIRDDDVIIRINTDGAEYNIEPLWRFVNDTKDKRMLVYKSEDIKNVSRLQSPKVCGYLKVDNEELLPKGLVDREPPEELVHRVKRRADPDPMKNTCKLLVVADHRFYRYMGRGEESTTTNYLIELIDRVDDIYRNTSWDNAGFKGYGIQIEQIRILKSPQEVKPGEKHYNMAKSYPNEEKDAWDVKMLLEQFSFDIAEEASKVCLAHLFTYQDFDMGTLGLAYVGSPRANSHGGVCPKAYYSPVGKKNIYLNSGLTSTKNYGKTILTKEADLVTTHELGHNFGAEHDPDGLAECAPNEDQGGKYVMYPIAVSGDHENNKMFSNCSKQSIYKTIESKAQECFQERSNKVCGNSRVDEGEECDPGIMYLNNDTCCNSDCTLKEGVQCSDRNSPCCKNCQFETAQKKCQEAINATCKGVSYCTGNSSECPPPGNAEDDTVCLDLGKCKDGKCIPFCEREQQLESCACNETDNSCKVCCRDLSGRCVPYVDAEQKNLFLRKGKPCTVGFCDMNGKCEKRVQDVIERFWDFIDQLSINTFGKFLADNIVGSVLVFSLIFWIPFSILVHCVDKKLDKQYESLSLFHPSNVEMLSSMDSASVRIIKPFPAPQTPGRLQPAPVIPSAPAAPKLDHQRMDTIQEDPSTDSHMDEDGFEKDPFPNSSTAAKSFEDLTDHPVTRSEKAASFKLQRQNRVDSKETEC
measurement-label: pIC50
Numbers only, as −log10 of the molar value.

{"columns": ["compound", "pIC50"],
 "data": [
  ["CC(C)C[C@H]1C(=O)N[C@H](C(=O)NCC(=O)N2CC(C)CC(C)C2)Cc2ccc(cc2)OCCC[C@@H]1C(=O)NO (some centres not stated)", 6.57]
]}

Record pIC50 for all entries; do not skip any.
1. CC(C)C[C@H]1C(=O)N[C@H](C(=O)Nc2ccccc2)CCCCNC(=O)OCCC[C@@H]1C(=O)NO
2. CC(C)C[C@H]1C(=O)N[C@H](C(=O)Nc2ccccn2)CCCCN(C)C(=O)OCCC[C@@H]1C(=O)NO
3. CC(C)C[C@H]1C(=O)N[C@H](C(=O)NCC(=O)N2CCC(O)CC2)Cc2ccc(cc2)OCCC[C@@H]1C(=O)NO
4. CNC(=O)[C@@H](CC(C)C)NC(=O)[C@@H]1CCCCNC(=O)OCCC[C@H](C(=O)NO)[C@@H](CC(C)C)C(=O)N1
5. CC(C)C[C@H]1C(=O)N[C@H](C(=O)NCC(=O)Nc2cccc3c2Cc2ccccc2-3)Cc2ccc(cc2)OCCC[C@@H]1C(=O)NO
6. CC(C)C[C@H]1C(=O)N[C@H](C(=O)N[C@H](CO)C(=O)N2CCOCC2)CCCCNC(=O)OCCC[C@@H]1C(=O)NO

Solution:
[6.55, 6.70, 6.70, 7.00, 6.03, 7.00]

----------
protocol-details: Maximal plasma concentration in Beagle dogs after 0.5 mg/kg intravenous dose.
Assay type: ADME, organism-based, Canis lupus familiaris
Design: dose 0.5 mg/kg, route intravenous
assay-conditions: dog
measurement-label: Cmax (ng/mL)
Answers are plain numbers, in ng/mL.

Exercise: Return value of Cmax for input CC(C)C[C@H]1C(=O)N[C@H](C(=O)NCC(=O)N2CCOCC2)CCCCNC(=O)OCCC[C@@H]1C(=O)NO , no commentary.
Solution: 667

----------
Target or system Matrix metalloproteinase-15 (Homo sapiens); recorded quantity Ki.
One number for each entry, in nM.

{"columns": ["substance-smiles", "measurement-label", "endpoint-unit", "result-value"],
 "data": [
  ["CNC(=O)CNC(=O)[C@@H]1Cc2ccc(cc2)OCCC[C@H](C(=O)NO)[C@@H](CC(C)C)C(=O)N1", "Ki", "nM", 20]
]}

Exercise: Return value of Ki for input CC(C)C[C@H]1C(=O)N[C@H](C(=O)NCC(=O)N2CCOCC2)CCCCNC(=O)OCCC[C@@H]1C(=O)NO , no commentary.
Solution: 71

----------
Please respond with reported IC50 for every item in the list.
study-system: Disintegrin and metalloproteinase domain-containing protein 17 (Homo sapiens)
Give bare numbers, in nM.

Worked set:
{"columns": ["substance-smiles", "result-value"],
 "data": [
  ["CNC(=O)CNC(=O)[C@@H]1Cc2ccc(cc2)OCCC[C@H](C(=O)NO)[C@@H](CC(C)C)C(=O)N1", 220],
  ["CNC(=O)[C@@H](Cc1ccc(OC)cc1)NC(=O)[C@H](CC(C)C)[C@H](C)C(=O)NO", 1800],
  ["CNC(=O)CNC(=O)[C@@H]1CCCCN(C)C(=O)OCCC[C@H](C(=O)NO)[C@@H](CC(C)C)C(=O)N1", 420],
  ["CC(C)C[C@H]1C(=O)N[C@H](C(=O)NCc2ccncc2)CCCCNC(=O)OCCC[C@@H]1C(=O)NO", 490],
  ["CC(C)C[C@H]1C(=O)N[C@H](C(=O)NCC(=O)N(C)C)Cc2ccc(cc2)OCCC[C@@H]1C(=O)NO", 400]
]}

Record IC50 for all entries; do not skip any.
1. CC(C)C[C@H]1C(=O)N[C@H](C(=O)NC[C@H]2CCCO2)CCCCNC(=O)OCCC[C@@H]1C(=O)NO
2. CNC(=O)[C@@H]1CCCCN(C)C(=O)CO[C@H](C(=O)NO)[C@@H](CC(C)C)C(=O)N1
3. CNC(=O)CNC(=O)[C@@H]1CCCCNC(=O)OCCC[C@H](C(=O)NO)[C@@H](CC(C)C)C(=O)N1

Solution:
980
3800
120

----------
study-system: Disintegrin and metalloproteinase domain-containing protein 17 (Homo sapiens, UniProt P78536)
# label = criterion met if IC50 < 700 nM else criterion not met

Exercise: A record lists CNC(=O)[C@@H]1CCCCN(C)C(=O)OCCC[C@H](C(=O)NO)[C@@H](CC(C)C)C(=O)N1 . Is its IC50 below 700 nM?
Solution: criterion not met

----------
study-system: Disintegrin and metalloproteinase domain-containing protein 17 (Sus scrofa)
Sequence (O77636 whole entry, the tested form may be a part): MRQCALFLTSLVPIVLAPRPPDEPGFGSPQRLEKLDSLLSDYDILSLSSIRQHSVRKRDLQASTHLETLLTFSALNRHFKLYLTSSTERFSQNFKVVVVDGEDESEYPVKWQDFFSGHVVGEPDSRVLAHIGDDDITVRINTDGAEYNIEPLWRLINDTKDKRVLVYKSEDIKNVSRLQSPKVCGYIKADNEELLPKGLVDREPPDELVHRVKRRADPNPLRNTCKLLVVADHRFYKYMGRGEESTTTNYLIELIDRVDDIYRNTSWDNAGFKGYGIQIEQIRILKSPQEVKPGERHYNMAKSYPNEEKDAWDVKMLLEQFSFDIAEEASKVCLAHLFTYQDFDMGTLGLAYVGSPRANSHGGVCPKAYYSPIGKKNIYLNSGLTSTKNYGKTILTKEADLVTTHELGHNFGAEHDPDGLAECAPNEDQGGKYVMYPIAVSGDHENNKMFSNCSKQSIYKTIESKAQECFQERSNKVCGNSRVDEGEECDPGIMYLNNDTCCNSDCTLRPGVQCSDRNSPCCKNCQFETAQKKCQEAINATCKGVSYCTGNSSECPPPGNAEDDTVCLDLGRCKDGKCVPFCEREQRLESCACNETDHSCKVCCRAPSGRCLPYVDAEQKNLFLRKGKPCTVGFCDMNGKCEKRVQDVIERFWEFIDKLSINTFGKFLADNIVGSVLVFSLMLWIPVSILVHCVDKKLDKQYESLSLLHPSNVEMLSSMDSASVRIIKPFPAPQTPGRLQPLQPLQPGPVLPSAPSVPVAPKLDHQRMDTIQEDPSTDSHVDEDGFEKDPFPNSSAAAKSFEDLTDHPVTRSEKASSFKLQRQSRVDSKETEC
measurement-label: Ki

Exercise: Return value of Ki for input CNC(=O)CNC(=O)[C@@H]1Cc2ccc(cc2)OCCC[C@H](C(=O)NO)[C@@H](CC(C)C)C(=O)N1 , no commentary.
Solution: 12 nM

----------
study-system: Disintegrin and metalloproteinase domain-containing protein 17 (Homo sapiens, UniProt P78536)
Please respond with reported IC50 for every item in the list.
Your answer should be a number followed by the unit of measure.

{"columns": ["substance-smiles", "IC50"],
 "data": [
  ["CNC(=O)[C@@H]1CSc2ccccc2NC(=O)CO[C@H](C(=O)NO)[C@@H](CC(C)C)C(=O)N1", "8 µM"]
]}

Record IC50 for all entries; do not skip any.
1. CC(C)C[C@H]1C(=O)N[C@H](C(=O)NCCC(=O)N2CCOCC2)CCCCNC(=O)OCCC[C@@H]1C(=O)NO
2. CCCCCC[C@H]1C(=O)N[C@H](C(=O)NCC(=O)NC)Cc2ccc(cc2)OCCC[C@@H]1C(=O)NO
3. CC(C)C[C@H]1C(=O)N[C@H](C(=O)NCC(=O)NC2CCC2)Cc2ccc(cc2)OCCC[C@@H]1C(=O)NO
4. CC(C)C[C@H]1C(=O)N[C@H](C(=O)NCC(=O)N2CCOCC2)CCCCN(C)C(=O)OCCC[C@@H]1C(=O)NO

Solution:
0.17 µM
0.55 µM
0.2 µM
0.2 µM

----------
study-system: Interstitial collagenase (Homo sapiens, UniProt P03956)
Sequence (P03956 whole entry): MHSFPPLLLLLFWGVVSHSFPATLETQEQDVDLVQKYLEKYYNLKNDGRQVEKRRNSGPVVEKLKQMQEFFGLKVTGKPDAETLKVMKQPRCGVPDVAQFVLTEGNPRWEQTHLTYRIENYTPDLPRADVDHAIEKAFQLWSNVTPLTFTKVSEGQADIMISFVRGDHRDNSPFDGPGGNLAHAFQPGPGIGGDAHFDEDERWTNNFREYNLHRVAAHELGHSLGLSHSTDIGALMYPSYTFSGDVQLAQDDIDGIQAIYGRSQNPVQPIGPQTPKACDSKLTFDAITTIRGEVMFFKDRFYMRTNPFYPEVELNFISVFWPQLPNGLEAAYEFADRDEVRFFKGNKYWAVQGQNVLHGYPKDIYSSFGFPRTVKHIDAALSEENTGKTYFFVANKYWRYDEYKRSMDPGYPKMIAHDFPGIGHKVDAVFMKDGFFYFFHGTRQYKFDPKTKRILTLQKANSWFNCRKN
pKi: −log10 of the molar value.
measurement-label: pKi

Worked set:
{"columns": ["substance-smiles", "study-system", "pKi"],
 "data": [
  ["CNC(=O)[C@@H]1CCCCNC(=O)OCCC[C@H](C(=O)NO)[C@@H](CC(C)C)C(=O)N1", "Interstitial collagenase (Homo sapiens, UniProt P03956)", "> 9.00"],
  ["CNC(=O)[C@@H](Cc1ccc(OC)cc1)NC(=O)[C@H](CC(C)C)[C@H](C)C(=O)NO", "Interstitial collagenase (Homo sapiens, UniProt P03956)", "> 9.00"]
]}

Turning now to a further compound:
Exercise: Return value of pKi for input CNC(=O)[C@@H]1CCCCN(C)C(=O)CO[C@H](C(=O)NO)[C@@H](CC(C)C)C(=O)N1 , no commentary.
Solution: > 9.00

----------
Target or system Disintegrin and metalloproteinase domain-containing protein 17 (Homo sapiens); recorded quantity IC50.
Numbers only, in nM.

{"columns": ["compound", "endpoint-unit", "IC50"],
 "data": [
  ["COc1ccc2c(CCNC(=O)[C@@H]3CCCCNC(=O)OCCC[C@H](C(=O)NO)[C@@H](CC(C)C)C(=O)N3)c[nH]c2c1", "nM", 94],
  ["COc1ccc2[nH]cc(CCNC(=O)[C@@H]3CCCCNC(=O)OCCC[C@H](C(=O)NO)[C@@H](CC(C)C)C(=O)N3)c2c1", "nM", 490],
  ["CC(C)C[C@H]1C(=O)N[C@H](C(=O)NC[C@@H]2CCCO2)CCCCNC(=O)OCCC[C@@H]1C(=O)NO", "nM", 260]
]}

Record IC50 for all entries; do not skip any.
1. CC(C)C[C@H]1C(=O)N[C@H](C(=O)NCCc2ccc(S(N)(=O)=O)cc2)Cc2ccc(cc2)OCCC[C@@H]1C(=O)NO
2. CNC(=O)[C@H](NC(=O)[C@@H]1Cc2ccc(cc2)OCCC[C@H](C(=O)NO)[C@@H](CC(C)C)C(=O)N1)C(C)C
3. CC(C)C[C@H]1C(=O)N[C@H](C(=O)NCC(=O)N2CCC(O)CC2)CCCCN(C)C(=O)OCCC[C@@H]1C(=O)NO
4. CNC(=O)[C@@H]1CCCCNC(=O)CO[C@H](C(=O)NO)[C@@H](CC(C)C)C(=O)N1
5. CCCCCC[C@H]1C(=O)N[C@H](C(=O)NCc2ccccc2)Cc2ccc(cc2)OCCC[C@@H]1C(=O)NO
6. CNC(=O)[C@@H](Cc1ccc(OC)cc1)NC(=O)[C@@H]1Cc2ccc(cc2)OCCC[C@H](C(=O)NO)[C@@H](CC(C)C)C(=O)N1
7. CC(C)C[C@H]1C(=O)N[C@H](C(=O)NCC(=O)N2CCCC2)CCCCN(C)C(=O)OCCC[C@@H]1C(=O)NO
8. CC(C)C[C@H]1C(=O)N[C@H](C(=O)NCC(F)(F)F)CCCCNC(=O)OCCC[C@@H]1C(=O)NO

Solution:
1000
1510
300
6500
2200
850
400
2000
